Measured IC50, listed per entry.
Tested on: HFF
Assay: Inhibitory concentration against human respiratory syncytial virus strain A2 in human foreskin fibroblasts
Type: functional, cell-based
Only the number, expressed in nM, is required.

NC(=O)CCN(CCC(N)=O)S(=O)(=O)c1cccc(Nc2nc(Cl)nc(Nc3ccc(-c4ccc(Nc5nc(Nc6cccc(S(=O)(=O)N(CCC(N)=O)CCC(N)=O)c6)nc(Nc6cccc(S(=O)(=O)N(CCC(N)=O)CCC(N)=O)c6)n5)cc4S(=O)(=O)O)c(S(=O)(=O)O)c3)n2)c1	250

Exam item: For the compound O=S(=O)(O)c1cc(Nc2cc(Nc3cccc(S(=O)(=O)N(CCO)CCO)c3)nc(Nc3cccc(S(=O)(=O)N(CCO)CCO)c3)n2)ccc1-c1ccc(Nc2cc(Nc3cccc(S(=O)(=O)N(CCO)CCO)c3)nc(Nc3cccc(S(=O)(=O)N(CCO)CCO)c3)n2)cc1S(=O)(=O)O , what IC50 is on record?
Marked response: 820

Exam item: Check NC(=O)CN(CC(N)=O)S(=O)(=O)c1cccc(Nc2cc(Nc3ccc(-c4ccc(Nc5nc(Nc6cccc(S(=O)(=O)N(CC(N)=O)CC(N)=O)c6)ncc5Cl)cc4S(=O)(=O)O)c(S(=O)(=O)O)c3)nc(Cl)n2)c1 too.
Marked response: 3500

Exam item: Check NC(=O)CCN(CCC(N)=O)S(=O)(=O)c1cccc(Nc2nc(Nc3cccc(S(=O)(=O)N(CCC(N)=O)CCC(N)=O)c3)nc(Nc3ccc(/C=C/c4ccc(Nc5nc(Nc6cccc(S(=O)(=O)N(CCC(N)=O)CCC(N)=O)c6)nc(Nc6cccc(S(=O)(=O)N(CCC(N)=O)CCC(N)=O)c6)n5)cc4S(=O)(=O)O)c(S(=O)(=O)O)c3)n2)c1 too.
Marked response: 150
